Collected melting point values appear next to each entry.
REPORTED METRIC: melting point (°C)

1. N#Cc1c(Cl)nsc1N1[C@@H]2CC[C@H]1CC(Oc1cccc(C(F)(F)F)n1)C2 (stereo partly drawn)    158
2. OC1(CC#Cc2ccccc2)CC2CCC(C1)N2c1ncnc2sccc12 (stereo not drawn)    173
3. O=C(O)CC1CC2CCC(C1)N2c1ncnc2sccc12 (stereo not drawn)    181
4. COc1cc(C(C)=O)ccc1OC1C[C@H]2CC[C@@H](C1)N2c1ncnc2sccc12 (stereo partly drawn)    171
5. Cn1cc(C(=O)N2[C@@H]3CC[C@H]2CC(Oc2cc(C(F)(F)F)ccn2)C3)c(C(F)(F)F)c1 (stereo partly drawn)    183
6. FC(F)(F)c1cccc(OC2C[C@H]3CC[C@@H](C2)N3c2ncnc3ccsc23)n1 (stereo partly drawn)    109
7. N#Cc1c(Cl)nsc1N1[C@@H]2CC[C@H]1CC(Oc1cc(C(F)(F)F)ccn1)C2 (stereo partly drawn)    103
8. CCc1ncnc(N2C3CCC2CC(=CC#N)C3)c1Cl    73
9. CCc1ncnc(N2C3CCC2CC(CC(N)=S)C3)c1Cl (stereo not drawn)    160
10. Cc1nn(C)c2nccc(N3[C@@H]4CC[C@H]3CC(Oc3nc(C(F)(F)F)cs3)C4)c12 (stereo partly drawn)    184
11. O=C1c2ccccc2C(=O)N1OC1C[C@H]2CC[C@@H](C1)N2c1ncnc2sccc12 (stereo partly drawn) [1.73]    243
12. Fc1cc(F)c(CON=C2CC3CCC(C2)N3c2ncnc3sccc23)cc1F    106
13. FC(F)(F)c1cnc(ON=C2CC3CCC(C2)N3c2ncnc3sccc23)c(Cl)c1    156
14. O=C1c2ccccc2C(=O)N1OC1C[C@H]2CC[C@@H](C1)N2c1ncnc2sccc12 (stereo partly drawn) [Example 2.64]    190
15. FC(F)(F)c1ccc(OC2C[C@H]3CC[C@@H](C2)N3c2ccnc3cc(Cl)ccc23)nc1 (stereo partly drawn)    107
16. CS(=O)(=O)OC1C[C@H]2CC[C@@H](C1)N2c1ncnc2sccc12 (stereo partly drawn)    135
17. CCOC(=O)C=C1CC2CCC(C1)N2c1ncnc2sccc12    101
18. CCc1ncnc(N2C3CCC2CC(O)(CC#C[Si](C)(C)C)C3)c1Cl (stereo not drawn)    85

----------
# System: Plutella xylostella
# ASSAY DETAILS: Plutella xylostella (Diamond back moth) artificial diet test
# TEST CONTEXT: 120 h, read-out: control of Plutella xylostella
The following molecules are listed with their measured pest or weed control at 200 ppm values.
REPORTED METRIC: pest or weed control at 200 ppm

1. Fc1ccc(CON=C2CC3CCC(C2)N3c2ncnc3sccc23)c(Cl)c1    ≥ 80%
2. Clc1ccc(CON=C2CC3CCC(C2)N3c2ncnc3sccc23)cc1    ≥ 80%
3. Clc1ccc(CON=C2CC3CCC(C2)N3c2ncnc3sccc23)c(Cl)c1    ≥ 80%
4. CCc1ncnc(N2C3CCC2CC(=NOCc2cc(F)c(F)cc2F)C3)c1Cl    ≥ 80%
5. c1ccc(CON=C2CC3CCC(C2)N3c2ncnc3sccc23)cc1    ≥ 80%
6. CCc1ncnc(N2C3CCC2CC(=NOCc2cccc(C)c2F)C3)c1Cl    ≥ 80%
7. CCc1ncnc(N2C3CCC2CC(=NOCc2cc(F)ccc2F)C3)c1Cl    ≥ 80%
8. CCc1ncnc(N2C3CCC2CC(=NOCc2ccccc2Br)C3)c1Cl    ≥ 80%
9. COc1cccc(CON=C2CC3CCC(C2)N3c2ncnc3sccc23)c1    ≥ 80%
10. CCc1ncnc(N2C3CCC2CC(=NOCc2ccc(C)cc2)C3)c1Cl    ≥ 80%
11. CCCCCC(=O)C=C1CC2CCC(C1)N2c1ncnc2sccc12    ≥ 80%
12. CCc1ncnc(N2C3CCC2CC(=NOCc2ccccc2C)C3)c1Cl    ≥ 80%
13. Clc1ccc(-c2csc(CC3CC4CCC(C3)N4c3ncnc4sccc34)n2)cc1 (stereo not drawn)    ≥ 80%
14. CCc1ncnc(N2C3CCC2CC(=NOCc2noc(C)n2)C3)c1Cl    ≥ 80%
15. CCc1ncnc(N2C3CCC2CC(=NOCc2ccc(OC(F)(F)F)cc2)C3)c1Cl    ≥ 80%
16. Cc1cccc(CON=C2CC3CCC(C2)N3c2ncnc3sccc23)c1F    ≥ 80%
17. FC(F)(F)c1ccccc1CON=C1CC2CCC(C1)N2c1ncnc2sccc12    ≥ 80%
18. CCc1ncnc(N2C3CCC2CC(Cc2ccc(OC)cc2)C3)c1Cl (stereo not drawn)    ≥ 80%

----------
Measured pest or weed control at 200 ppm accompanies every entry in the list below.
# System: Phytophthora infestans
# ASSAY DETAILS: whole plant or invertebrate
# Assay type: in vivo
# TEST CONTEXT: foliar, 96 h, read-out: control of fungal infection, Phytophthora infestans
REPORTED METRIC: pest or weed control at 200 ppm

1. c1ccc(CCON=C2CC3CCC(C2)N3c2ncnc3sccc23)cc1    ≥ 80%
2. Fc1cc(CON=C2CC3CCC(C2)N3c2ncnc3sccc23)cc(C(F)(F)F)c1F    ≥ 80%
3. CCc1ncnc(N2C3CCC2CC(=NOCc2c(C)noc2C)C3)c1Cl    ≥ 80%
4. Cc1nc(CON=C2CC3CCC(C2)N3c2ncnc3sccc23)cs1    ≥ 80%
5. CC(=O)Nc1ccc(CON=C2CC3CCC(C2)N3c2ncnc3sccc23)cc1    ≥ 80%
6. CCc1ccc(CON=C2CC3CCC(C2)N3c2ncnc(CC)c2Cl)cc1    ≥ 80%
7. CCc1ncnc(N2[C@@H]3CC[C@H]2CC(Oc2ccc(OC)cc2C(C)=O)C3)c1Cl (some centres unmarked)    ≥ 80%
8. FC(F)(F)c1ccc(OC2C[C@H]3CC[C@@H](C2)N3c2ncnc3sccc23)nc1 (some centres unmarked)    ≥ 80%

----------
Measured pest or weed control at 200 ppm of individual entries
# System: Erysiphe graminis f.sp. tritici
# ASSAY DETAILS: Erysiphe graminis f.sp. tritici (wheat powdery mildew) leaf disk assay
# Format: in vivo
# TEST CONTEXT: Blumeria graminis, foliar, 96 h, preventive, four days after inoculation, read-out: control of fungal infection, Erysiphe graminis fsp. tritici
REPORTED METRIC: pest or weed control at 200 ppm

1) Fc1c(Cl)cccc1CON=C1CC2CCC(C1)N2c1ncnc2sccc12    ≥ 80%
2) Cn1nc(C(F)(F)F)cc1C(=O)N1[C@@H]2CC[C@H]1CC(Oc1cc(C(F)(F)F)ccn1)C2 (stereo partly shown)    ≥ 80%
3) COc1cc(CON=C2CC3CCC(C2)N3c2ncnc3sccc23)nc(N)n1    ≥ 80%
4) CCc1ncnc(N2C3CCC2CC(=NOCc2cccc(Cl)c2Cl)C3)c1Cl    ≥ 80%

----------
# pest or weed control at 200 ppm per record follows
# System: Erysiphe graminis f.sp. tritici
# ASSAY DETAILS: Erysiphe graminis f.sp. tritici (wheat powdery mildew) leaf disk assay
# Type: in vivo
# TEST CONTEXT: Blumeria graminis, foliar, 96 h, preventive, four days after inoculation, read-out: control of fungal infection, Erysiphe graminis fsp. tritici
REPORTED METRIC: pest or weed control at 200 ppm

1) CCc1ncnc(N2C3CCC2CC(=NOc2cc(C)nc(SC)n2)C3)c1Cl    ≥ 80%
2) CCc1ncnc(N2C3CCC2CC(=NOCc2cc(F)cc(C(F)(F)F)c2)C3)c1Cl    ≥ 80%
3) CCc1ncnc(N2C3CCC2CC(=NOCc2cccc(F)c2)C3)c1Cl    ≥ 80%
4) COc1ccc(OC2C[C@H]3CC[C@@H](C2)N3c2ncnc3sccc23)c(Cl)c1 (stereo partly shown)    ≥ 80%

----------
Here, each record is paired with measured pest or weed control at 200 ppm data.
# Test system: Phytophthora infestans
# ASSAY DETAILS: whole plant or invertebrate
# Assay type: in vivo
# TEST CONTEXT: foliar, 96 h, read-out: control of fungal infection, Phytophthora infestans
REPORTED METRIC: pest or weed control at 200 ppm

1) Brc1ccc(CON=C2CC3CCC(C2)N3c2ncnc3sccc23)cc1    ≥ 80%
2) Fc1cc(Br)ccc1CON=C1CC2CCC(C1)N2c1ncnc2sccc12    ≥ 80%
3) c1ccc2cc(CON=C3CC4CCC(C3)N4c3ncnc4sccc34)ccc2c1    ≥ 80%
4) FC(F)(F)c1ccc(CON=C2CC3CCC(C2)N3c2ncnc3sccc23)cc1    ≥ 80%
5) CCc1ncnc(N2C3CCC2CC(=NOCc2ccncc2)C3)c1Cl    ≥ 80%
6) c1ccc2c(c1)[nH]c1cc(OC3C[C@H]4CC[C@@H](C3)N4c3ncnc4sccc34)ccc12 (stereo partly drawn)    ≥ 80%
7) CCc1ncnc(N2[C@@H]3CC[C@H]2CC(NCc2ccc(Cl)cc2)C3)c1Cl (stereo partly drawn)    ≥ 80%
8) CCc1ncnc(N2C3CCC2CC(=NOCC(=O)OC(C)(C)C)C3)c1Cl    ≥ 80%
9) CCc1ncnc(N2C3CCC2CC(=NOc2ncccn2)C3)c1Cl    ≥ 80%
10) N#Cc1cccc(CON=C2CC3CCC(C2)N3c2ncnc3sccc23)c1    ≥ 80%
11) CCc1ncnc(N2C3CCC2CC(=NOCc2ccccn2)C3)c1Cl    ≥ 80%
12) Fc1ccc(CON=C2CC3CCC(C2)N3c2ncnc3sccc23)cc1    ≥ 80%
13) FC(F)(F)Oc1ccc(CON=C2CC3CCC(C2)N3c2ncnc3sccc23)cc1    ≥ 80%
14) N#Cc1ccc(CON=C2CC3CCC(C2)N3c2ncnc3sccc23)cc1    ≥ 80%
15) CCc1ncnc(N2C3CCC2CC(=NOCc2cc(OC)nc(N)n2)C3)c1Cl    ≥ 80%
16) C(=C1CC2CCC(C1)N2c1ncnc2sccc12)c1ccccc1    ≥ 80%
17) CCCCC1COC2(CC3CCC(C2)N3c2ncnc3sccc23)O1 (stereo not drawn)    ≥ 80%
18) CN(C)C(=O)C=C1CC2CCC(C1)N2c1ncnc2sccc12    ≥ 80%
